Data credit: ChEMBL document CHEMBL1201861

Provide the recorded pIC50 for the entries that follow.
Tested on: MONO-MAC-6;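 note: cell viability assay measuring growth inhibition of human MONO-MAC-6 cells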
Test: cells
Assay type: functional, cell-based, Homo sapiens
Details: Homo sapiens, MONO-MAC-6
Description: SANGER: Inhibition of human MONO-MAC-6 cell growth in a cell viability assay.
pIC50: −log10 of the molar value.

Task item: I would be grateful if you could share the reported pIC50 for "COC(=O)[C@H](CCSC)NC(=O)c1ccc(NC[C@@H](N)CS)cc1-c1ccccc1" .
Reply: < 5.99

Task item: I would be grateful if you could share the reported pIC50 for C=CC(=O)N1CCCC(Nc2nc(Nc3ccc(N(C)C(=O)CC)cc3)nc3[nH]cnc23)C1 (stereo not drawn) .
Reply: < 4.99

Task item: I would be grateful if you could share the reported pIC50 for "NC(=O)c1cccc(-c2cc(Nc3ccc(OC(F)(F)F)cc3)ncn2)c1" .
Reply: < 5.89
